# reported switch fluorescence ratio; entries follow
# Tested on: ATP;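 further: ATP exposure 15 min at 22 °C before imaging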
# assaySummary: switch fluorescence ratio, 500 uM ATP over buffer (Cy3 cluster intensity, sum of 5 cycles each) (fold (ratio)); higher = stronger signal-on switching upon ATP binding; sequences stand for … in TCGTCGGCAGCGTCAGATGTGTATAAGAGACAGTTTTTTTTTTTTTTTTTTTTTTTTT…TC
# experimentalParameters: aptamer strand: ATP DNA aptamer (quencher-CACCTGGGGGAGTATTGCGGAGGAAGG + anchor), 100 nM annealed; ATP concentration: 500 uM
recordedEndpoint: switch fluorescence ratio

> print(dat)
   sequencedata    val
1    ACAAATTGCC   1.03
2    AAAGGGGCGC  0.993
3    TAGCGGGGTT  0.976
4    TTTTGTTGTG  0.999

---

# System: ATP;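 further: ATP exposure 15 min at 22 °C before imaging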
# assaySummary: switch fluorescence ratio, 500 uM ATP over buffer (Cy3 cluster intensity, sum of 5 cycles each) (fold (ratio)); higher = stronger signal-on switching upon ATP binding; sequences stand for … in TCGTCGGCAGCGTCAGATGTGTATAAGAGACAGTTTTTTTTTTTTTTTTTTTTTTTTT…TC
# experimentalParameters: aptamer strand: ATP DNA aptamer (quencher-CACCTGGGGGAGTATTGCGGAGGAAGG + anchor), 100 nM annealed; ATP concentration: 500 uM
recordedEndpoint: switch fluorescence ratio

> print(dat)
    sequencedata           recordedendpoint    val
 1    ATGAGTGCCA  switch fluorescence ratio  0.984
 2    TTATAGATGG  switch fluorescence ratio  0.971
 3    CGCTGGCCTT  switch fluorescence ratio  0.975
 4    TCGGGAATCG  switch fluorescence ratio  0.983
 5    TGAATAAGAG  switch fluorescence ratio   1.01
 6    GGGAGCAGGG  switch fluorescence ratio  0.909
 7    CAATTGGTAC  switch fluorescence ratio   1.05
 8    TTAAGATGGT  switch fluorescence ratio  0.983
 9    CACTATAATG  switch fluorescence ratio   1.05
10    GTTTGAATGT  switch fluorescence ratio  0.973
11    TAAATGGCCA  switch fluorescence ratio   0.98
12    GGTAACAGGG  switch fluorescence ratio   1.02
13    GGTCTATCCG  switch fluorescence ratio  0.983
14     GGTTTGGTG  switch fluorescence ratio   1.01
15    TGTTGTGTGG  switch fluorescence ratio   1.02
16    TTTATGCTTT  switch fluorescence ratio   1.01
17    AATAACGGTG  switch fluorescence ratio   1.07
18    TCAGGGTTGT  switch fluorescence ratio   1.02
19    TTCACGGGTC  switch fluorescence ratio   1.06
20    TAGCTCGGTG  switch fluorescence ratio      1
21    CCTCGGTTTT  switch fluorescence ratio   1.24
22    AAGGCCCTGA  switch fluorescence ratio  0.994
23    ACAAGTCGTT  switch fluorescence ratio  0.972
24    TGAGGGAGGG  switch fluorescence ratio   1.01
25    GGGGGCCTGT  switch fluorescence ratio   1.01
26    GTTGCTACCA  switch fluorescence ratio   1.01
27    AGGGGTGTTA  switch fluorescence ratio  0.991
28    ACTGGGGACG  switch fluorescence ratio   1.02
29    TTTCACACTC  switch fluorescence ratio   1.02
30    TTTACTGGCT  switch fluorescence ratio   1.02
31    GACATAGTGG  switch fluorescence ratio   1.01
32    AATGAAGTCG  switch fluorescence ratio  0.997
33    TGATGAGGAT  switch fluorescence ratio   1.01
34    CCCGGGGGAA  switch fluorescence ratio   1.03
35    TTGGCTCTTT  switch fluorescence ratio   1.01
36    TCCTGCAGGA  switch fluorescence ratio   1.03
37    GAGTACTGTT  switch fluorescence ratio  0.972
38    GCCACTTACA  switch fluorescence ratio   1.36
39     AGGGATTGC  switch fluorescence ratio  0.973
40    TGATTAGAAG  switch fluorescence ratio  0.985
41    CTCTGAGGGG  switch fluorescence ratio   1.16
